experiment: Inhibition of recombinant NDM1 (unknown origin) expressed in Escherichia coli (DE3) cells using FC5 as substrate by microplate reader assay
assay_metric: IC50

Query string: State the recorded IC50 for this entry: OB(O)c1cccc(-c2cn(-c3ccccc3)nn2)c1
Result string: > 100 µM

Query string: Query: IC50; subject: CCCCc1cn(-c2ccccc2CP(=O)(O)O)nn1
Result string: > 100 µM

Query string: Can you look up the measured IC50 of O=P(O)(O)Cc1ccccc1-n1cc(-c2cccc(Cl)c2)nn1 for me?
Result string: > 100 µM

Query string: Bench note: what IC50 did O=C(O)c1cccc(-n2cc(-c3ccccc3)nn2)c1[N+](=O)[O-] show?
Result string: > 100 µM

Query string: Which IC50 reading was recorded for the compound CC(C)(C)OC(=O)NCCn1cc(-c2cccc(B(O)O)c2)nn1 ?
Result string: > 100 µM

Query string: Look up IC50 for this compound: CCc1ccc(C(c2cccc(-n3cc(-c4cccc(N)c4)nn3)c2)P(=O)(O)O)cc1 (stereo unspecified)
Result string: 0.65 µM

Query string: Which value of IC50 has been reported for NCc1cccc(-c2cn(-c3ccccc3CP(=O)(O)O)nn2)c1 in the records?
Result string: > 100 µM

Query string: Record request: IC50 value, item Nc1ccccc1-c1cn(-c2ccc(CP(=O)(O)O)cc2)nn1
Result string: 16.6 µM

Query string: Suppose we examine the compound CC(C)(C)c1cn(-c2cccc(CP(=O)(O)O)c2)nn1 ; what IC50 value has been reported?
Result string: 27.1 µM

Query string: Entry O=C(O)c1ccccc1-c1cn(-c2cccc(C(=O)O)c2C(=O)O)nn1 : reported IC50 = ?
Result string: > 100 µM

Query string: Need IC50, item O=P(O)(O)Cc1cccc(-n2cc(-c3ccccc3Br)nn2)c1
Result string: 5.2 µM

Where do the numbers come from? From ChEMBL document CHEMBL5620345.
